Entries annotated with measured kon
TEST SYSTEM: T1, human IL-33 (R&D Systems, #3625-IL-010/CF) (human) (UniProt O95760)
T1 sequence (looked up): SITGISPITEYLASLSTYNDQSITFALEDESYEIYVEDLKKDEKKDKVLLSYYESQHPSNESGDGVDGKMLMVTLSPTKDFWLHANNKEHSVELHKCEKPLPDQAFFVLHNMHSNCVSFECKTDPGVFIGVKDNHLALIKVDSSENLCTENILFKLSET
MEASUREMENT DESCRIPTION: SPR Biacore T200, 25 C
State the answer as a number, implicitly in M⁻¹ s⁻¹.

Some binders with recorded kon:
BINDER	kon, M⁻¹ s⁻¹
H4H9664P (antibody, from another filing, IgG4, V domains shown) VH: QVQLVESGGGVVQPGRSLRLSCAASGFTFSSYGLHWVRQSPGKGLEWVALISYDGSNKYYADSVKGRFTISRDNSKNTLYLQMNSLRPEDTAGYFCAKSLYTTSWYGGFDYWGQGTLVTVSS VL: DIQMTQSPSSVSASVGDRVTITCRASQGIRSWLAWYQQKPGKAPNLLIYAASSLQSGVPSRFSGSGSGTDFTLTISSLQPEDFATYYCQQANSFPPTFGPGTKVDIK	339000
H4H9663P (antibody, from another filing, IgG4, V domains shown) VH: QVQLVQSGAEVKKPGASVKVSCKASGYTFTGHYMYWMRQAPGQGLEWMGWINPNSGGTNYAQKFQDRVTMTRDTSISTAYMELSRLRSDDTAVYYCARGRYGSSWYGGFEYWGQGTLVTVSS VL: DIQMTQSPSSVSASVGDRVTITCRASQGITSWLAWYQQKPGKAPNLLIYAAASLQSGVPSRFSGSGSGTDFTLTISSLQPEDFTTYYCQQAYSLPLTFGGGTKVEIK	1.68e+06
H4H9667P (antibody, from another filing, IgG4, V domains shown) VH: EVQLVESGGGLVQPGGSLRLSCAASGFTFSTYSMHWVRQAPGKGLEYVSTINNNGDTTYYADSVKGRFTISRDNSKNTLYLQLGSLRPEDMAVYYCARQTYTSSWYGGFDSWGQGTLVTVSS VL: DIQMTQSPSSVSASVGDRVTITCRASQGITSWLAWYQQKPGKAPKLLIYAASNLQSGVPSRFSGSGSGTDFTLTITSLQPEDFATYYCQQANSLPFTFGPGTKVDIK	626000

Now for the binder whose kon we want.
# query: kon of entry H4H9666P (antibody, from another filing, IgG4, V domains shown) VH: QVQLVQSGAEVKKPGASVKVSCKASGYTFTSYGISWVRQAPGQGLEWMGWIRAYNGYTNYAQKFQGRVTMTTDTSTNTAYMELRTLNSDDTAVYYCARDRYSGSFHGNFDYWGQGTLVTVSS VL: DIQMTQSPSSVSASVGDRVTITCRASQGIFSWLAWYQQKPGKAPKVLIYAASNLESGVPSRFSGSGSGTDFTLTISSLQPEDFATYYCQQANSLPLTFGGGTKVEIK
665000

The origin of these recorded values is patent US20190092852A1.
